These measurements were taken from PubChem BioAssay (NCATS).

Experiment: qHTS to identify inhibitors of the type 1 interferon - major histocompatibility complex class I in skeletal muscle: primary screen against the NCATS Mechanism Interrogation Plate v5.0 (MIPE) Libary (AID 1347411); note: nearly all actives have a fitted effect of over 65% in size
Conditions: iHSKM cells + IFN-b, HiBiT-tagged MHC-I luminescence, 24 h; series mostly up to 45.8 µM
Inconclusive results are not listed. Active and inactive are the calls of the source. Calls come from the whole dose curve; as a rule, active = well fitted inhibition curve with a large enough effect; inconclusive = small, poorly fitted or top-dose-only effect; inactive = no such curve, though single readings can be large or run the other way.
Outcome (select one): 1 (yes) for active, 0 (no) for inactive

CO[C@@H]1C(N(C)C(=O)c2ccccc2)C[C@H]2O[C@]1(C)n1c3ccccc3c3c4c(c5c6ccccc6n2c5c31)C(=O)NC4=O (some centres undefined); 0 (no)
N[C@@H](CC(=O)N1CCn2c(nnc2C(F)(F)F)C1)Cc1cc(F)c(F)cc1F; 0 (no)
NCc1c[nH]c(=S)n1[C@H]1CCc2c(F)cc(F)cc2C1; 0 (no)
COc1cc2ncn(-c3cc(OCc4ccccc4S(C)(=O)=O)c(C#N)s3)c2cc1OC; 0 (no)
CC(=O)NCCC(=O)N[C@@H](CCC(N)=O)C(=O)N[C@@H](CO)C(=O)N[C@@H](CCC(N)=O)C(=O)N[C@@H](CCC(N)=O)C(=O)N[C@H](C(=O)N[C@@H](Cc1ccccc1)C(=O)N[C@]1(C)CCCCCCC=CCCC[C@@](C)(C(=O)N[C@@H](CCC(N)=O)C(=O)N[C@@H](CC(N)=O)C(N)=O)NC(=O)[C@H](CC(C)C)NC(=O)[C@H](CC(C)C)NC(=O)[C@@H](CCCNC(=N)N)NC(=O)[C@H](Cc2c[nH]c3ccccc23)NC(=O)[C@H](CC(C)C)NC(=O)[C@H](CC(N)=O)NC1=O)[C@H](C)O; 0 (no)
CC(C)(F)C[C@H](N[C@@H](c1ccc(-c2ccc(S(C)(=O)=O)cc2)cc1)C(F)(F)F)C(=O)NC1(C#N)CC1; 0 (no)
O=C(O)c1nc(=O)[nH]c(=O)[nH]1; 0 (no)
COc1ccc2c(c1)c(C1=C(c3c[nH]c4ccccc34)C(=O)NC1=O)cn2CCCN(C)C; 1 (yes)

Now look at this one.
Test call, this molecule: CC1=C(C(=O)Nc2cc3cn[nH]c3cc2F)C(c2ccc(C(F)(F)F)cc2)CC(=O)N1 (centres undefined) 0 (no)
